Data credit: the supplement of paper PMC10077471

- Test system: NCI-H446
- ASSAY OVERVIEW: excess over highest single agent (ExcessHSA) synergy score, 6x6 matrix; higher = less synergy (more negative = stronger synergy)
- RECORDED CONDITIONS: 72 h; CellTiter-Glo viability
In all, about 1,900 compounds were measured (“excess over highest single agent (ExcessHSA) synergy score, 6x6 matrix”: median about -83, lowest 2% from about -370 on). The full list was thinned out, with the lowest values kept by preference.
ENDPOINT: excess over highest single agent
Hey, just send me the number, nothing else.

Consider the reported excess over highest single agent for these compounds:
{"COMPOUND": "CN(C)Cc1c(C(=O)NCCOc2ccc(C(=O)NO)cc2)oc2ccccc12 + Cc1sc2c(c1C)C(c1ccc(Cl)cc1)=N[C@@H](CC(=O)OC(C)(C)C)c1nnc(C)n1-2", "excess over highest single agent": -152}
{"COMPOUND": "O=C(O)C(=O)Nc1cccc(-c2nnn[nH]2)c1 + Cc1sc2c(c1C)C(c1ccc(Cl)cc1)=N[C@@H](CC(=O)OC(C)(C)C)c1nnc(C)n1-2", "excess over highest single agent": 42.8}
{"COMPOUND": "CC(C)(N)C(=O)N[C@H](COCc1ccccc1)C(=O)N1CCC2(CC1)CN(S(C)(=O)=O)c1ccccc12 + Cc1sc2c(c1C)C(c1ccc(Cl)cc1)=N[C@@H](CC(=O)OC(C)(C)C)c1nnc(C)n1-2", "excess over highest single agent": -36}
{"COMPOUND": "C=C1/C(=C\\C=C2/CCC[C@]3(C)[C@@H]([C@H](C)/C=C/C=C/C(O)(CC)CC)CC[C@@H]23)C[C@@H](O)C[C@@H]1O + Cc1sc2c(c1C)C(c1ccc(Cl)cc1)=N[C@@H](CC(=O)OC(C)(C)C)c1nnc(C)n1-2", "excess over highest single agent": 84.4}
{"COMPOUND": "OC[C@H]1OC(O)C[C@@H](O)[C@@H]1O (stereo partly drawn) + Cc1sc2c(c1C)C(c1ccc(Cl)cc1)=N[C@@H](CC(=O)OC(C)(C)C)c1nnc(C)n1-2", "excess over highest single agent": -201}

Ask: Give recorded excess over highest single agent with NCI-H446 for the following compound: O=C1NC(=O)/C(=C/c2cccc(C(F)(F)F)c2)S1 + Cc1sc2c(c1C)C(c1ccc(Cl)cc1)=N[C@@H](CC(=O)OC(C)(C)C)c1nnc(C)n1-2
Result: 75.6

----------
- Test system: NCI-H446
- ASSAY OVERVIEW: excess over highest single agent (ExcessHSA) synergy score, 6x6 matrix; higher = less synergy (more negative = stronger synergy)
- RECORDED CONDITIONS: 72 h; CellTiter-Glo viability
Over roughly 1,900 compounds, “excess over highest single agent (ExcessHSA) synergy score, 6x6 matrix” has its median near -83; the lowest 2% begin near -370. For the sample, the lowest values were picked, then their nearest neighbours and some compounds at random.
Lab note - cut at -90 for excess over highest single agent: Satisfied if strictly below, Not satisfied if not.

{"MOLECULE": "COc1c(C)cnc(Cn2cnc3c(Cl)nc(N)nc32)c1C + Cc1sc2c(c1C)C(c1ccc(Cl)cc1)=N[C@@H](CC(=O)OC(C)(C)C)c1nnc(C)n1-2", "CLASSIFICATION": "Satisfied"}
{"MOLECULE": "CC[C@H](CC#N)OC(=O)N[C@@H](C)c1cccc(NC(=O)Nc2ccc(-c3cnco3)c(OC)c2)c1 + Cc1sc2c(c1C)C(c1ccc(Cl)cc1)=N[C@@H](CC(=O)OC(C)(C)C)c1nnc(C)n1-2", "CLASSIFICATION": "Satisfied"}
{"MOLECULE": "C=CCON=C(C[C@H]1O[C@@H]2O[C@]3(C)CC[C@@H]4[C@H](C)CC[C@@H]([C@H]1C)[C@@]24OO3)[C@H]1O[C@@H]2O[C@]3(C)CC[C@H]4[C@H](C)CC[C@@H]([C@@H]1C)[C@@]24OO3 + Cc1sc2c(c1C)C(c1ccc(Cl)cc1)=N[C@@H](CC(=O)OC(C)(C)C)c1nnc(C)n1-2", "CLASSIFICATION": "Satisfied"}
{"MOLECULE": "CC(C)CC(=O)Nc1n[nH]c2c1CN(C(=O)C1CCN(C)CC1)C2(C)C + Cc1sc2c(c1C)C(c1ccc(Cl)cc1)=N[C@@H](CC(=O)OC(C)(C)C)c1nnc(C)n1-2", "CLASSIFICATION": "Satisfied"}
{"MOLECULE": "CCn1c(-c2nonc2N)nc2cncc(CNC3CCNCC3)c21 + Cc1sc2c(c1C)C(c1ccc(Cl)cc1)=N[C@@H](CC(=O)OC(C)(C)C)c1nnc(C)n1-2", "CLASSIFICATION": "Not satisfied"}

Ask: Is excess over highest single agent of COc1cccc2nc(-c3cccs3)nc(NN3C(=O)C=C(C)C3=O)c12 + Cc1sc2c(c1C)C(c1ccc(Cl)cc1)=N[C@@H](CC(=O)OC(C)(C)C)c1nnc(C)n1-2 strictly below -90?
Result: Satisfied

Ask: Is excess over highest single agent of CO[C@@H]1[C@H](N(C)C(=O)c2ccccc2)C[C@H]2O[C@]1(C)n1c3ccccc3c3c4c(c5c6ccccc6n2c5c31)C(=O)NC4 + Cc1sc2c(c1C)C(c1ccc(Cl)cc1)=N[C@@H](CC(=O)OC(C)(C)C)c1nnc(C)n1-2 strictly below -90?
Result: Satisfied

Ask: Is excess over highest single agent of CO[C@@H]1[C@H](N(C)C(=O)c2ccccc2)C[C@H]2O[C@]1(C)n1c3ccccc3c3c4c(c5c6ccccc6n2c5c31)C(=O)NC4=O + Cc1sc2c(c1C)C(c1ccc(Cl)cc1)=N[C@@H](CC(=O)OC(C)(C)C)c1nnc(C)n1-2 strictly below -90?
Result: Satisfied

Ask: Is excess over highest single agent of C[C@@H]1[C@@H](C(=O)C[C@H]2O[C@@H]3O[C@]4(C)CC[C@@H]5[C@H](C)CC[C@@H]([C@H]2C)[C@@]35OO4)O[C@@H]2O[C@]3(C)CC[C@H]4[C@H](C)CC[C@@H]1[C@@]24OO3 + Cc1sc2c(c1C)C(c1ccc(Cl)cc1)=N[C@@H](CC(=O)OC(C)(C)C)c1nnc(C)n1-2 strictly below -90?
Result: Satisfied

Ask: Is excess over highest single agent of Cc1cnc(CNC(=O)c2c(=O)c3ccc(N4CCCN(C)CC4)nc3n3c2sc2ccccc23)cn1 + Cc1sc2c(c1C)C(c1ccc(Cl)cc1)=N[C@@H](CC(=O)OC(C)(C)C)c1nnc(C)n1-2 strictly below -90?
Result: Satisfied

Ask: Is excess over highest single agent of CCOC(=O)N1CCN([N+]([O-])=NOc2ccc([N+](=O)[O-])cc2[N+](=O)[O-])CC1 + Cc1sc2c(c1C)C(c1ccc(Cl)cc1)=N[C@@H](CC(=O)OC(C)(C)C)c1nnc(C)n1-2 strictly below -90?
Result: Not satisfied

Ask: Is excess over highest single agent of COc1ccc2[nH]c([S+]([O-])Cc3ncc(C)c(OC)c3C)nc2c1 (stereo not drawn) + Cc1sc2c(c1C)C(c1ccc(Cl)cc1)=N[C@@H](CC(=O)OC(C)(C)C)c1nnc(C)n1-2 strictly below -90?
Result: Not satisfied
